Below, each entry is listed with its recorded pIC50.
- study-system: Tyrosine-protein kinase JAK2 (Homo sapiens)
- Sequence (O60674 whole entry): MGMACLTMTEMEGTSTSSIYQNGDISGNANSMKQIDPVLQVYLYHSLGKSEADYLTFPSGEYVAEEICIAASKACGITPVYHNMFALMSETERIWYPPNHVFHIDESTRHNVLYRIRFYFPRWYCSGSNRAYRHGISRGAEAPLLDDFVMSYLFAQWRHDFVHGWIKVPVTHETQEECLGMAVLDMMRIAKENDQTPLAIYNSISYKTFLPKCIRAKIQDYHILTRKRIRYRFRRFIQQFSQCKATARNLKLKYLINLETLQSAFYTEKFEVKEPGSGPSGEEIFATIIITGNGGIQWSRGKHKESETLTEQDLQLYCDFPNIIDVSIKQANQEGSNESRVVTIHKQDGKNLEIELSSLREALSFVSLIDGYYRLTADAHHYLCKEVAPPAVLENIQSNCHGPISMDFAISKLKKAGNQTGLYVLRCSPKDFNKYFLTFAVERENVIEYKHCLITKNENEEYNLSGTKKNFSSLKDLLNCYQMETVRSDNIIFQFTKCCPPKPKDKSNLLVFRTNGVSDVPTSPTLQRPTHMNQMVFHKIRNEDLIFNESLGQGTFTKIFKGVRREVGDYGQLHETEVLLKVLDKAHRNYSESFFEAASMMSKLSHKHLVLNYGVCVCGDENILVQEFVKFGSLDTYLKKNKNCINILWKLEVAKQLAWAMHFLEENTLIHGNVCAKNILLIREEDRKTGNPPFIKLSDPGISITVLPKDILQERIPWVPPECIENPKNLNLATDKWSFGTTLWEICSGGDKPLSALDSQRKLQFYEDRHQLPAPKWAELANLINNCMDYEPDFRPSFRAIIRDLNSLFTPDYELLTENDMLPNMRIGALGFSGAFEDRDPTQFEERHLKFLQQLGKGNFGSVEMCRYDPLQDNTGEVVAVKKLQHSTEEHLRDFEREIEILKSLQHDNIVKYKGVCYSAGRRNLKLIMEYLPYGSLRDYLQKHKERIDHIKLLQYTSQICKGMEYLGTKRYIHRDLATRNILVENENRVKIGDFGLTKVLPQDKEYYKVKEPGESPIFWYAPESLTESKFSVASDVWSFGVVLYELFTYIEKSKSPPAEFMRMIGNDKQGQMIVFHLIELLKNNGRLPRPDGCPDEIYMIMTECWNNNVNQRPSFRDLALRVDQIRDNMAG
- test-protocol: JAK Caliper Enzyme Assay at 1 mM ATP: Test article was solubilized in dimethyl sulfoxide (DMSO) to a stock concentration of 30 mM. An 11-point half log dilution series was created in DMSO with a top concentration of 600 μM. […] The compound plates were diluted 1 to 60 resulting in a top final assay compound concentration of 10 μM and a 2% DMSO concentration.Test article and assay controls were added to a 384-well plate. Reaction mixtures contained 20 mM HEPES, pH 7.4, 10 mM magnesium chloride, 0.01% bovine serum albumin (BSA), 0.0005% Tween 20, 1 mM ATP and 1 μM peptide substrate. […] Enzyme concentrations and incubation times were optimized for each new enzyme preps and were modified slightly over time to ensure 20%-30% phosphorylation. The assays were stopped with a final concentration of 10 mM EDTA, 0.1% Coating Reagent and 100 mM HEPES, pH=7.4. The assay plates were placed on a Caliper Life Science Lab Chip 3000 (LC3000) instrument, and each well was sampled using appropriate separation conditions to measure the unphosphorylated and phosphorylated peptide.
Scale explanation: pIC50 corresponds to minus log10 of a concentration expressed in moles per litre.

- smiles-record: "CCc1cc(O)ccc1-c1cc2[nH]ncc2c(NCCc2ccc(-c3ccccc3)cc2)n1"
  pIC50: 6.74
- smiles-record: "Cc1nnc(-c2n[nH]c3cc(-c4cc(F)c(O)cc4CC(F)(F)F)nc(NCc4ccccc4N(C)S(C)(=O)=O)c23)[nH]1"
  pIC50: 6.89
- smiles-record: "CCc1cc(O)ccc1-c1cc2[nH]ncc2c(N2CC(Oc3ccccc3)C2)n1"
  pIC50: 7.08
- smiles-record: "CS(=O)(=O)N(CCO)c1ccccc1CNc1nc(-c2cc(F)c(O)cc2CC(F)(F)F)cc2[nH]nc(C(N)=O)c12"
  pIC50: 7.83
- smiles-record: "CN(c1ccc(O)cc1CNc1nc(-c2cc(F)c(O)cc2CC(F)(F)F)nc2[nH]nc(-c3nc4c([nH]3)CCNC4)c12)S(C)(=O)=O"
  pIC50: 7.45
- smiles-record: "CN(c1ccccc1CNc1nc(-c2cc(F)c(O)cc2CC(F)(F)F)nc2[nH]nc(-c3nnc(C4CCN(C(=O)CN5CCCC5)CC4)[nH]3)c12)S(C)(=O)=O"
  pIC50: 7.27

Then there is this compound:
Request: Give the reported value of pIC50 for this record: "CN(c1ccc(O)cc1CNc1nc(-c2cc(F)c(O)cc2CC(F)(F)F)nc2[nH]nc(C(N)=O)c12)S(C)(=O)=O"
Result: 7.90

---

Below, each entry is listed with its recorded IC50.
- study-system: UniProt P52333
- Sequence (P52333 whole entry): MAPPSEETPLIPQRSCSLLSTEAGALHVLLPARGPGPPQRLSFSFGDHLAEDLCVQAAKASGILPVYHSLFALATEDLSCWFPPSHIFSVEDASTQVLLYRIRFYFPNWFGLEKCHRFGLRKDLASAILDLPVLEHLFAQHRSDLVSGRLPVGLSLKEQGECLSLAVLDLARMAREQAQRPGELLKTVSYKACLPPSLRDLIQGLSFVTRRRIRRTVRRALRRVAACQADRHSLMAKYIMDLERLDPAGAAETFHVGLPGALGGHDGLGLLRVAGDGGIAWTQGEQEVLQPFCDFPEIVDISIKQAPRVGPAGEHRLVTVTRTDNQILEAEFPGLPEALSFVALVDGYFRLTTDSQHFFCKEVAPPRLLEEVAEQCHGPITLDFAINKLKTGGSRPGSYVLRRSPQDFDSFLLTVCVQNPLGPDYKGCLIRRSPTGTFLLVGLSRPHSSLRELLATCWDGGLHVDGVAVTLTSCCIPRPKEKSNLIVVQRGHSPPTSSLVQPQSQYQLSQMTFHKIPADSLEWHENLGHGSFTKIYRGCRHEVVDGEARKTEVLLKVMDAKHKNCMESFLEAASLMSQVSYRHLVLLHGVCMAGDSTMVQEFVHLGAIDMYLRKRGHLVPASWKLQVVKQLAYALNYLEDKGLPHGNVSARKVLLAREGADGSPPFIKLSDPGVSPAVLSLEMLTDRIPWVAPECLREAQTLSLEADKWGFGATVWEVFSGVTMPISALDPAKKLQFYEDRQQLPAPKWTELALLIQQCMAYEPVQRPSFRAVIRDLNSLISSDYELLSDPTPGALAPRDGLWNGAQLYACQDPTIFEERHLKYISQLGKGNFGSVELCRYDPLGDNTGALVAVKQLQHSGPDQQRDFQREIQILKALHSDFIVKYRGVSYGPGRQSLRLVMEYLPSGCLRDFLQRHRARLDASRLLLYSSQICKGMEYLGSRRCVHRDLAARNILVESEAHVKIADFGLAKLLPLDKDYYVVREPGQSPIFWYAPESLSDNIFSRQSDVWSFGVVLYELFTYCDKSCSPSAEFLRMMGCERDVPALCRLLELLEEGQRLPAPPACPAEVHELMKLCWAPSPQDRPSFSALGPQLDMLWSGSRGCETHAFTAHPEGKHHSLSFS
- test-protocol: JAK Caliper Enzyme Assay at 1 mM ATP: Test article was solubilized in dimethyl sulfoxide (DMSO) to a stock concentration of 30 mM. An 11-point half log dilution series was created in DMSO with a top concentration of 600 μM. […] The compound plates were diluted 1 to 60 resulting in a top final assay compound concentration of 10 μM and a 2% DMSO concentration.Test article and assay controls were added to a 384-well plate. Reaction mixtures contained 20 mM HEPES, pH 7.4, 10 mM magnesium chloride, 0.01% bovine serum albumin (BSA), 0.0005% Tween 20, 1 mM ATP and 1 μM peptide substrate. The JAK1 and TYK2 assays contained 1 μM of the IRStide peptide (5FAM-[…]) and the JAK2 and JAK3 assays contained 1 μM of the JAKtide peptide (FITC-[…]). […] Enzyme concentrations and incubation times were optimized for each new enzyme preps and were modified slightly over time to ensure 20%-30% phosphorylation. The assays were stopped with a final concentration of 10 mM EDTA, 0.1% Coating Reagent and 100 mM HEPES, pH=7.4. The assay plates were placed on a Caliper Life Science Lab Chip 3000 (LC3000) instrument, and each well was sampled using appropriate separation conditions to measure the unphosphorylated and phosphorylated peptide.
Return type: number; implicit unit µM.

These solved cases illustrate the format of a correct answer.
- smiles-record: "CN(c1ccc(O)cc1CNc1nc(-c2cc(F)c(O)cc2CC(F)(F)F)nc2[nH]nc(-c3nc4c([nH]3)CCNC4)c12)S(C)(=O)=O"
  IC50 [µM]: 0.111
- smiles-record: "CN(c1ccccc1CNc1nc(-c2cc(F)c(O)cc2CC(F)(F)F)nc2[nH]nc(-c3nnc(C4CCN(C(=O)CN5CCCC5)CC4)[nH]3)c12)S(C)(=O)=O"
  IC50 [µM]: 0.158
- smiles-record: "CS(=O)(=O)N(CCO)c1ccccc1CNc1nc(-c2cc(F)c(O)cc2CC(F)(F)F)cc2[nH]nc(C(N)=O)c12"
  IC50 [µM]: 0.0535
- smiles-record: "Cc1nnc(-c2n[nH]c3cc(-c4cc(F)c(O)cc4CC(F)(F)F)nc(NCc4ccccc4N(C)S(C)(=O)=O)c23)[nH]1"
  IC50 [µM]: 0.429

Request: Give the reported value of IC50 for this record: "CN(c1ccc(O)cc1CNc1nc(-c2cc(F)c(O)cc2CC(F)(F)F)nc2[nH]nc(C(N)=O)c12)S(C)(=O)=O"
Result: 0.038

Request: Give the reported value of IC50 for this record: "CCc1cc(O)ccc1-c1cc2[nH]ncc2c(NCCc2ccc(-c3ccccc3)cc2)n1"
Result: 0.157

Request: Give the reported value of IC50 for this record: "CCc1cc(O)ccc1-c1cc2[nH]ncc2c(N2CC(Oc3ccccc3)C2)n1"
Result: 0.0675

---

- study-system: Non-receptor tyrosine-protein kinase TYK2 (Homo sapiens)
- Sequence (P29597 whole entry): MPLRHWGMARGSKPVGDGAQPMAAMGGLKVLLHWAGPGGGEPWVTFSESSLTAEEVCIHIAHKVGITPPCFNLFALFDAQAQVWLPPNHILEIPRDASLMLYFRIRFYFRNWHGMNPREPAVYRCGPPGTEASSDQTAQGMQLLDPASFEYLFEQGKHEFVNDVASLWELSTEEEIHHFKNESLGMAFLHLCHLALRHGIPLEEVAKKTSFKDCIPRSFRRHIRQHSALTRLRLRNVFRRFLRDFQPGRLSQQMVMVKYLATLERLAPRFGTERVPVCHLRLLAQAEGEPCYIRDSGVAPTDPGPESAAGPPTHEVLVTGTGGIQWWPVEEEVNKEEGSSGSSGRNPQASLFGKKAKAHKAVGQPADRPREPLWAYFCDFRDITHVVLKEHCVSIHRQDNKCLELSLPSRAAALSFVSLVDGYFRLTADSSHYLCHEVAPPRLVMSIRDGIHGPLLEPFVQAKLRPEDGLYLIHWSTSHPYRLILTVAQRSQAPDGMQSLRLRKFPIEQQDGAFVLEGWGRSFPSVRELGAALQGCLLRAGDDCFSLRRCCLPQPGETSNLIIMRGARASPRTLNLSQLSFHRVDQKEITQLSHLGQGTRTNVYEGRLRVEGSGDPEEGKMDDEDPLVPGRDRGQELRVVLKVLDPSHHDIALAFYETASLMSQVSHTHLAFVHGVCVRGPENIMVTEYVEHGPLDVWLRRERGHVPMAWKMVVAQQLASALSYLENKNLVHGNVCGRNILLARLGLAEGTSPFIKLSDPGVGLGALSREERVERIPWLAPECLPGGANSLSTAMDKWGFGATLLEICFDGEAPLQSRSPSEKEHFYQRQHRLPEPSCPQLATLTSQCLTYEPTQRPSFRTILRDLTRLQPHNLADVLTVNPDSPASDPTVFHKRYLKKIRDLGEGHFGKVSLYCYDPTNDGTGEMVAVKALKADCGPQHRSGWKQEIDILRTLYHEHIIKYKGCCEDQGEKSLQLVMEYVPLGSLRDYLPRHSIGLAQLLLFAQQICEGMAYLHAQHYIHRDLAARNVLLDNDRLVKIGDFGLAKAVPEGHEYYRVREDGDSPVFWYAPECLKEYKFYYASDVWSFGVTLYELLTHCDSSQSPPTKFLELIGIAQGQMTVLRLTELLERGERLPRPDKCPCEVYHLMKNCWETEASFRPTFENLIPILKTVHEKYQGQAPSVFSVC
- test-protocol: JAK Caliper Enzyme Assay at 1 mM ATP: Test article was solubilized in dimethyl sulfoxide (DMSO) to a stock concentration of 30 mM. An 11-point half log dilution series was created in DMSO with a top concentration of 600 μM. […] The compound plates were diluted 1 to 60 resulting in a top final assay compound concentration of 10 μM and a 2% DMSO concentration.Test article and assay controls were added to a 384-well plate. Reaction mixtures contained 20 mM HEPES, pH 7.4, 10 mM magnesium chloride, 0.01% bovine serum albumin (BSA), 0.0005% Tween 20, 1 mM ATP and 1 μM peptide substrate. The JAK1 and TYK2 assays contained 1 μM of the IRStide peptide (5FAM-[…]) and the JAK2 and JAK3 assays contained 1 μM of the JAKtide peptide (FITC-[…]). […] Enzyme concentrations and incubation times were optimized for each new enzyme preps and were modified slightly over time to ensure 20%-30% phosphorylation. The assays were stopped with a final concentration of 10 mM EDTA, 0.1% Coating Reagent and 100 mM HEPES, pH=7.4. The assay plates were placed on a Caliper Life Science Lab Chip 3000 (LC3000) instrument, and each well was sampled using appropriate separation conditions to measure the unphosphorylated and phosphorylated peptide.
Below, each entry is listed with its recorded pIC50.
Scale explanation: pIC50 corresponds to minus log10 of a concentration expressed in moles per litre.

These solved cases illustrate the format of a correct answer.
- smiles-record: "CN(c1ccccc1CNc1nc(-c2cc(F)c(O)cc2CC(F)(F)F)nc2[nH]nc(-c3nnc(C4CCN(C(=O)CN5CCCC5)CC4)[nH]3)c12)S(C)(=O)=O"
  pIC50: 5.65
- smiles-record: "Cc1nnc(-c2n[nH]c3cc(-c4cc(F)c(O)cc4CC(F)(F)F)nc(NCc4ccccc4N(C)S(C)(=O)=O)c23)[nH]1"
  pIC50: 6.82
- smiles-record: "CN(c1ccc(O)cc1CNc1nc(-c2cc(F)c(O)cc2CC(F)(F)F)nc2[nH]nc(-c3nc4c([nH]3)CCNC4)c12)S(C)(=O)=O"
  pIC50: 7.16

Request: Please look at "CS(=O)(=O)N(CCO)c1ccccc1CNc1nc(-c2cc(F)c(O)cc2CC(F)(F)F)cc2[nH]nc(C(N)=O)c12" and tell me its recorded pIC50 on Non-receptor tyrosine-protein kinase TYK2 (Homo sapiens).
Result: 7.31

Request: Please look at "CCc1cc(O)ccc1-c1cc2[nH]ncc2c(NCCc2ccc(-c3ccccc3)cc2)n1" and tell me its recorded pIC50 on Non-receptor tyrosine-protein kinase TYK2 (Homo sapiens).
Result: 5.37

Request: Please look at "CN(c1ccc(O)cc1CNc1nc(-c2cc(F)c(O)cc2CC(F)(F)F)nc2[nH]nc(C(N)=O)c12)S(C)(=O)=O" and tell me its recorded pIC50 on Non-receptor tyrosine-protein kinase TYK2 (Homo sapiens).
Result: 6.43

Request: Please look at "CCc1cc(O)ccc1-c1cc2[nH]ncc2c(N2CC(Oc3ccccc3)C2)n1" and tell me its recorded pIC50 on Non-receptor tyrosine-protein kinase TYK2 (Homo sapiens).
Result: 5.29

---

Below, each entry is listed with its recorded pIC50.
- study-system: Tyrosine-protein kinase JAK1 (Homo sapiens, UniProt P23458)
- Sequence (P23458 whole entry): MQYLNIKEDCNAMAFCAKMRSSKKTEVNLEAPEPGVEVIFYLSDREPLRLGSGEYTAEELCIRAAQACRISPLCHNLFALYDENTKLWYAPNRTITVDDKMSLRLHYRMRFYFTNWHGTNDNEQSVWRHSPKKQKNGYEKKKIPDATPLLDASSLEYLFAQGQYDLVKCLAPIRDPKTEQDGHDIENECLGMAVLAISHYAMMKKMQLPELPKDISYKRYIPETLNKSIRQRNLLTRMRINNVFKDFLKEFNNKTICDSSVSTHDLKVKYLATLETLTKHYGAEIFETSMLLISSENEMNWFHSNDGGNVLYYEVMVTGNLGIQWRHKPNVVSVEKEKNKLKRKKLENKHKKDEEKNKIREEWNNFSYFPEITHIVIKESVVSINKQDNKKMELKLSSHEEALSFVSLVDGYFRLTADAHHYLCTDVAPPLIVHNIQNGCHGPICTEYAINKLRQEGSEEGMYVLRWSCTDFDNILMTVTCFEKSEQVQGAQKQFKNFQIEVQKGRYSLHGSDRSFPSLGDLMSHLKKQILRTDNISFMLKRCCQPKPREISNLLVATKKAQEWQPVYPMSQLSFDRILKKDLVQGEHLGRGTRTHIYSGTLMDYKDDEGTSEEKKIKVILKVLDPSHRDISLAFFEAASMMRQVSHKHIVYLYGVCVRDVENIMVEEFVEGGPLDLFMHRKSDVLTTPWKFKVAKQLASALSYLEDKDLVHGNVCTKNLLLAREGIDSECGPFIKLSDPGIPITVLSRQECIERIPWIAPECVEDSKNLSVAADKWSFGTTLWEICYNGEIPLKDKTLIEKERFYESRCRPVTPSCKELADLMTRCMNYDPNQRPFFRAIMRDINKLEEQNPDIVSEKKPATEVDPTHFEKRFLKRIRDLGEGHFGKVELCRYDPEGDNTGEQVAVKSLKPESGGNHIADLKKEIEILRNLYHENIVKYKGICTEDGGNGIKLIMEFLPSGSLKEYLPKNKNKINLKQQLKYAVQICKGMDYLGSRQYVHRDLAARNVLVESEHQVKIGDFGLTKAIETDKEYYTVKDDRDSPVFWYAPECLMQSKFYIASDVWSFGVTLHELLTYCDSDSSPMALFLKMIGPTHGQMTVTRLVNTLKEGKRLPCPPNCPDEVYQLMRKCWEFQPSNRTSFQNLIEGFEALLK
- test-protocol: JAK Caliper Enzyme Assay at 1 mM ATP: Test article was solubilized in dimethyl sulfoxide (DMSO) to a stock concentration of 30 mM. An 11-point half log dilution series was created in DMSO with a top concentration of 600 μM. […] The compound plates were diluted 1 to 60 resulting in a top final assay compound concentration of 10 μM and a 2% DMSO concentration.Test article and assay controls were added to a 384-well plate. Reaction mixtures contained 20 mM HEPES, pH 7.4, 10 mM magnesium chloride, 0.01% bovine serum albumin (BSA), 0.0005% Tween 20, 1 mM ATP and 1 μM peptide substrate. The JAK1 and TYK2 assays contained 1 μM of the IRStide peptide (5FAM-[…]) and the JAK2 and JAK3 assays contained 1 μM of the JAKtide peptide (FITC-[…]). […] Enzyme concentrations and incubation times were optimized for each new enzyme preps and were modified slightly over time to ensure 20%-30% phosphorylation. The assays were stopped with a final concentration of 10 mM EDTA, 0.1% Coating Reagent and 100 mM HEPES, pH=7.4. The assay plates were placed on a Caliper Life Science Lab Chip 3000 (LC3000) instrument, and each well was sampled using appropriate separation conditions to measure the unphosphorylated and phosphorylated peptide.
Scale explanation: pIC50 corresponds to minus log10 of a concentration expressed in moles per litre.

- smiles-record: "Cc1nnc(-c2n[nH]c3cc(-c4cc(F)c(O)cc4CC(F)(F)F)nc(NCc4ccccc4N(C)S(C)(=O)=O)c23)[nH]1"
  pIC50: 7.56
- smiles-record: "CN(c1ccc(O)cc1CNc1nc(-c2cc(F)c(O)cc2CC(F)(F)F)nc2[nH]nc(-c3nc4c([nH]3)CCNC4)c12)S(C)(=O)=O"
  pIC50: 8.25

Request: Please look at "CN(c1ccccc1CNc1nc(-c2cc(F)c(O)cc2CC(F)(F)F)nc2[nH]nc(-c3nnc(C4CCN(C(=O)CN5CCCC5)CC4)[nH]3)c12)S(C)(=O)=O" and tell me its recorded pIC50 on Tyrosine-protein kinase JAK1 (Homo sapiens, UniProt P23458).
Result: 7.77

Request: Please look at "CN(c1ccc(O)cc1CNc1nc(-c2cc(F)c(O)cc2CC(F)(F)F)nc2[nH]nc(C(N)=O)c12)S(C)(=O)=O" and tell me its recorded pIC50 on Tyrosine-protein kinase JAK1 (Homo sapiens, UniProt P23458).
Result: 8.49

Request: Please look at "CCc1cc(O)ccc1-c1cc2[nH]ncc2c(N2CC(Oc3ccccc3)C2)n1" and tell me its recorded pIC50 on Tyrosine-protein kinase JAK1 (Homo sapiens, UniProt P23458).
Result: 7.92

Request: Please look at "CS(=O)(=O)N(CCO)c1ccccc1CNc1nc(-c2cc(F)c(O)cc2CC(F)(F)F)cc2[nH]nc(C(N)=O)c12" and tell me its recorded pIC50 on Tyrosine-protein kinase JAK1 (Homo sapiens, UniProt P23458).
Result: 8.54

Request: Please look at "CCc1cc(O)ccc1-c1cc2[nH]ncc2c(NCCc2ccc(-c3ccccc3)cc2)n1" and tell me its recorded pIC50 on Tyrosine-protein kinase JAK1 (Homo sapiens, UniProt P23458).
Result: 7.06
